Overview of reported IC50 across a group of compounds:
test system: HEK293; assay: Cell growth inhibition experiment (SRB), HEK293; type: cell-based, human; conditions: Homo sapiens, HEK293, 96 h, 96 hours incubation, read-out: IC50 (μM) for cancer cell line HEK293

# returns recorded IC50 (system: HEK293) for CCOc1nc2oc(C)cc2nc1NC(=O)N1CCN(c2cc(C(F)(F)F)cc(C(F)(F)F)c2)CC1 [Example 39] < 2.5 µM

###

test system: SK-OV-3; assay: Cell growth inhibition experiment (SRB), SK-OV-3; format: cell-based, human; settings: 96 hours incubation, read-out: IC50 (μM) for cancer cell line SK-OV-3
assay metric: IC50

Query the reported IC50 for SK-OV-3; item: COc1cc(F)cc(N2CCN(C(=O)Nc3nc4cc(Cl)oc4nc3OC)CC2)c1 [Example 43] < 2.5 µM

###

test system: PANC-1 (pancreatic cancer) cell line; test: Cell growth inhibition experiment (SRB), PANC-1; format: cell-based; conditions: Homo sapiens, PANC-1, 96 h, 96 hours incubation
So basically: is IC50 under 1 µM? Then yes. Not under? Then no.

Check out these entries, answers already filled in.
compound	classification
CCOc1nc2oc(Cl)cc2nc1NC(=O)N1CCN(c2cc(C)cc(OC)c2)CC1 [Example 52]	no
CCOc1nc2occc2nc1NC(=O)N1CCN(c2cc(OC)cc(OCCN(C)C)c2)CC1 [Example 14]	no
COc1nc2oc(Cl)cc2nc1NC(=O)N1CCN(c2cc(F)cc(F)c2)CC1 [Example 47]	yes
CCOc1nc2occc2nc1NC(=O)N1CCN(c2cc(C(F)(F)F)cc(C(F)(F)F)c2)CC1 [Example 19]	no
CCOc1nc2occc2nc1NC(=O)N1CCN(c2cc(OC)cc(OC)c2)CC1 [Example 11]	yes
COc1cc(F)cc(N2CCN(C(=O)Nc3nc4ccoc4nc3OC)CC2)c1 [Example 3]	yes

# TODO verify IC50 < 1 µM strictly for this compound: COc1cc(OC)cc(N2CCN(C(=O)Nc3nc4cc(C)oc4nc3OC)CC2)c1 [Example 21] no

In the record for CCOc1nc2occc2nc1NC(=O)N1CCN(c2cc(C)cc(C)c2)CC1 [Example 15] , is IC50 less than 1 µM? no

###

test system: HEK293; assay: Cell growth inhibition experiment (SRB), HEK293; assay type: cell-based, human; conditions: Homo sapiens, HEK293, 96 h, 96 hours incubation, read-out: IC50 (μM) for cancer cell line HEK293
assay metric: IC50

Observe how each entry below is paired with its result.
compound	assay metric	observed measurement
CCOc1nc2occc2nc1NC(=O)N1CCN(c2cc(F)cc(F)c2)CC1 [Example 17]	IC50	< 2.5 µM
COc1nc2oc(Cl)cc2nc1NC(=O)N1CCN(c2cccc(OC(F)(F)F)c2)CC1 [Example 50]	IC50	< 2.5 µM
CCOc1nc2oc(C)cc2nc1NC(=O)N1CCN(c2cc(OC)cc(OCCN(C)C)c2)CC1 [Example 34]	IC50	0.44 µM
COc1cc(C)cc(N2CCN(C(=O)Nc3nc4cc(Cl)oc4nc3OC)CC2)c1 [Example 42]	IC50	1.37 µM
COc1nc2oc(C)cc2nc1NC(=O)N1CCN(c2cc(F)cc(F)c2)CC1 [Example 27]	IC50	< 2.5 µM
CCOc1nc2occc2nc1NC(=O)N1CCN(c2cc(OC)cc(OCCN(C)C)c2)CC1 [Example 14]	IC50	< 2.5 µM
COc1nc2oc(Cl)cc2nc1NC(=O)N1CCN(c2cc(C(F)(F)F)cc(C(F)(F)F)c2)CC1 [Example 49]	IC50	< 2.5 µM
COc1cc(OCCN(C)C)cc(N2CCN(C(=O)Nc3nc4cc(Cl)oc4nc3OC)CC2)c1 [Example 44]	IC50	0.71 µM
CCOc1nc2oc(C)cc2nc1NC(=O)N1CCN(c2cc(C)cc(F)c2)CC1 [Example 36]	IC50	1.32 µM
CCOc1nc2oc(Cl)cc2nc1NC(=O)N1CCN(c2cc(F)cc(C(F)(F)F)c2)CC1 [Example 58]	IC50	< 2.5 µM

# lookup: IC50 of CCOc1nc2oc(C)cc2nc1NC(=O)N1CCN(c2cc(F)cc(OC)c2)CC1 [Example 33] 0.51 µM

Entry CCOc1nc2occc2nc1NC(=O)N1CCN(c2cc(C)cc(OC)c2)CC1 [Example 12] has what IC50? 1.55 µM

Find the recorded IC50 belonging to COc1nc2occc2nc1NC(=O)N1CCN(c2cc(F)cc(C(F)(F)F)c2)CC1 [Example 8] and report it. < 2.5 µM

Any idea what its IC50 is? The compound is CCOc1nc2oc(Cl)cc2nc1NC(=O)N1CCN(c2cc(F)cc(F)c2)CC1 [Example 57] < 2.5 µM

###

test system: PANC-1 (pancreatic cancer) cell line; experiment: Cell growth inhibition experiment (SRB), PANC-1; type: cell-based; details: Homo sapiens, PANC-1, 96 h, 96 hours incubation
Below, each of the molecules is paired with its reported IC50 value.
Give the number; µM is assumed, so skip it.

Consider the reported IC50 for these molecules:
molecule	subject of test	unit abbrev	IC50
COc1nc2oc(Cl)cc2nc1NC(=O)N1CCN(c2cc(C)cc(C)c2)CC1 [Example 45]	PANC-1 (pancreatic cancer) cell line	µM	0.68
CCOc1nc2occc2nc1NC(=O)N1CCN(c2cc(C)cc(OC)c2)CC1 [Example 12]	PANC-1 (pancreatic cancer) cell line	µM	0.24
CCOc1nc2oc(Cl)cc2nc1NC(=O)N1CCN(c2cc(C)cc(F)c2)CC1 [Example 56]	PANC-1 (pancreatic cancer) cell line	µM	1.68
CCOc1nc2oc(Cl)cc2nc1NC(=O)N1CCN(c2cc(C)cc(C)c2)CC1 [Example 55]	PANC-1 (pancreatic cancer) cell line	µM	1.68
CCOc1nc2oc(C)cc2nc1NC(=O)N1CCN(c2cc(F)cc(OC)c2)CC1 [Example 33]	PANC-1 (pancreatic cancer) cell line	µM	0.24

Look up IC50 for this molecule: COc1nc2occc2nc1NC(=O)N1CCN(c2cc(F)cc(F)c2)CC1 [Example 7] 1.89

What value of IC50 has been reported for the following molecule? CCOc1nc2oc(C)cc2nc1NC(=O)N1CCN(c2cc(C)cc(F)c2)CC1 [Example 36] 0.12

Which IC50 is reported for this molecule? CCOc1nc2oc(C)cc2nc1NC(=O)N1CCN(c2cc(OC)cc(OC)c2)CC1 [Example 31] 0.44

What value of measured IC50 is listed for COc1cc(C)cc(N2CCN(C(=O)Nc3nc4ccoc4nc3OC)CC2)c1 [Example 2] ? 0.45

Recorded IC50 of COc1cc(F)cc(N2CCN(C(=O)Nc3nc4cc(C)oc4nc3OC)CC2)c1 [Example 23] , please. 0.44

If you can, please state the reported IC50 value of COc1cc(OC)cc(N2CCN(C(=O)Nc3nc4cc(Cl)oc4nc3OC)CC2)c1 [Example 41] . 0.36

###

tested on: PANC-1 (pancreatic cancer) cell line; assay: Cell growth inhibition experiment (SRB), PANC-1; format: cell-based; details: Homo sapiens, PANC-1, 96 h, 96 hours incubation
assay metric: IC50 (µM)
# output: bare number, implied unit µM

Use the examples below as a reference point.
compound	IC50, µM
CCOc1nc2oc(C)cc2nc1NC(=O)N1CCN(c2cc(OC)cc(OCCN(C)C)c2)CC1 [Example 34]	0.44
COc1nc2oc(C)cc2nc1NC(=O)N1CCN(c2cccc(OC(F)(F)F)c2)CC1 [Example 30]	0.54
CCOc1nc2oc(C)cc2nc1NC(=O)N1CCN(c2cc(F)cc(F)c2)CC1 [Example 37]	0.51

Requested read-out: IC50. Entry: COc1nc2oc(Cl)cc2nc1NC(=O)N1CCN(c2cc(C)cc(F)c2)CC1 [Example 46] 1.94

Fill in: IC50 of COc1cc(OCCN(C)C)cc(N2CCN(C(=O)Nc3nc4cc(C)oc4nc3OC)CC2)c1 [Example 24] is ___ 0.44

Name the recorded IC50 for COc1cc(OCCN(C)C)cc(N2CCN(C(=O)Nc3nc4ccoc4nc3OC)CC2)c1 [Example 4] . 0.68

###

tested on: HN31 (head and neck cancer) cell line; assay: Cell growth inhibition experiment (SRB), HN31; type: cell-based, human; settings: 96 hours incubation
assay metric: IC50 (µM)
// units = µM; emit number, no label

Value lookup for IC50; key = COc1cc(F)cc(N2CCN(C(=O)Nc3nc4cc(Cl)oc4nc3OC)CC2)c1 [Example 43] 0.57

###

Test system: PANC-1 (pancreatic cancer) cell line
Assay: Cell growth inhibition experiment (SRB), PANC-1
Type: cell-based
Conditions: Homo sapiens, PANC-1, 96 h, 96 hours incubation
Experimental: The cell lines below were used in order to confirm the efficacy of the compounds synthesized in Examples 1 to 60. […] In order to convert the OD530 value to the number of viable cells per each well, the measured OD530 value was compared to the standard OD530-vs.-cell number curve of each cell line. The percent survival was calculated using the following formula: % survival=Nlive cells(test)/Nlive cells(control)×100
Some molecules, each annotated with its measured IC50.

Observe how each entry below is paired with its result.
input smiles	IC50
COc1nc2occc2nc1NC(=O)N1CCN(c2cc(C(F)(F)F)cc(C(F)(F)F)c2)CC1	< 2.5 µM
CCOc1nc2occc2nc1NC(=O)N1CCN(c2cc(F)cc(F)c2)CC1	< 2.5 µM

Entry `COc1nc2oc(C)cc2nc1NC(=O)N1CCN(c2cc(C)cc(F)c2)CC1` : reported IC50 = ? < 2.5 µM
